Target: T1, COVID S1 RBM Fc fusion (Antigen 2) (SARS-CoV-2, UniProt P0DTC2 437-508)
T1 construct: domain: RBM
Procedure Text: phage ELISA
I'd be grateful if you could share measured specificity ELISA, percent binding relative to Acro S1 for these entries.
One number for each entry, in %.

Qu. Can you look up the measured specificity ELISA, percent binding relative to Acro S1 of SARS-CoV-2 variant 1-10 (antibody, V domains shown) VH: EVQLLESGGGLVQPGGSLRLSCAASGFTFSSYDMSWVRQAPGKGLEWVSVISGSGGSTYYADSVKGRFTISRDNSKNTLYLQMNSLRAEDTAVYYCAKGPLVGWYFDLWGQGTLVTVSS VL: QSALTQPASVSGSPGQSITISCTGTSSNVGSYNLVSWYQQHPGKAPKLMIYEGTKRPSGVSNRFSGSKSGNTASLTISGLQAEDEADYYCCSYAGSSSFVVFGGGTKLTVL for me?
Ans. 6.2

Field: specificity ELISA, percent binding relative to Acro S1. Fill in for each record below.
1. SARS-CoV-2 variant 1-47 (antibody, V domains shown) VH: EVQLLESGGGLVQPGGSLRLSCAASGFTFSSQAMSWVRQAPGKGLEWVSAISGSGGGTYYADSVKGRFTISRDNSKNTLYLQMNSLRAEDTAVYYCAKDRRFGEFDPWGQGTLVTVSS VL: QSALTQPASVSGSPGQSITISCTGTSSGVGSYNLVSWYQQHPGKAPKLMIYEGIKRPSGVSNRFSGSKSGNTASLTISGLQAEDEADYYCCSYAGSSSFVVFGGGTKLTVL
2. SARS-CoV-2 variant 1-27 (antibody, V domains shown) VH: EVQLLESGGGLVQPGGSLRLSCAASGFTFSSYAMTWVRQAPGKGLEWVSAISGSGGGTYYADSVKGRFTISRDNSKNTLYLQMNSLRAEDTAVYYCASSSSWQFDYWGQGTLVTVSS VL: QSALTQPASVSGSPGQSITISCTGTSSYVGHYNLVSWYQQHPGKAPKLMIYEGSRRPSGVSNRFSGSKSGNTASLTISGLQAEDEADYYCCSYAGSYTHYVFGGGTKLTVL
3. SARS-CoV-2 variant 1-3 (antibody, V domains shown) VH: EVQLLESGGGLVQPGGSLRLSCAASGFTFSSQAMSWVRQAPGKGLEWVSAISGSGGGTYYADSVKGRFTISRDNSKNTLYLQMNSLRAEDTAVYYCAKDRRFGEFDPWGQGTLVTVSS VL: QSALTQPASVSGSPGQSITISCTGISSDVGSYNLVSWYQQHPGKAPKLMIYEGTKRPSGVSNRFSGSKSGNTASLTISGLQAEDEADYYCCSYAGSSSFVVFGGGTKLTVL
4. SARS-CoV-2 variant 1-45 (antibody, V domains shown) VH: EVQLLESGGGLVQPGGSLRLSCAASGFTFSSYAMSWVRQAPGKGLEWVSIISGSAGSTYYADSVKGRFTISRDNSKNTLYLQMNSLRAEDTAVYYCARDGYKYCLWGQGTLVTVSS VL: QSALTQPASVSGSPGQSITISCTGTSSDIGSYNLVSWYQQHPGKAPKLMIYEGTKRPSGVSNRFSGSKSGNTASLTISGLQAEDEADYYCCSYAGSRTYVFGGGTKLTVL

Ans.
11.1
109
91.9
8.3
